Biological target: CIB1 and αIIb interaction (CIB1-GST : F-αIIb peptide) (Homo sapiens)
Construct: made in house; host or cells: BL-21 plus RIL cells (E. coli)
Assay: FP assay, 1536-well qHTS format (primary and confirmatory screen)
Format: binding
Conditions: qHTS primary screen of LOPAC/NPACT libraries; negative = inhibition

| Molecule | Efficacy (%) |
| --- | --- |
| C=C1CC2OC(=O)C(=C)C2C(OC(=O)/C(C)=C\C)CC2(C)OC1=CC2=O (centres unmarked) | -25 |
| OCC1O[C@H]([S-])[C@H](O)[C@@H](O)[C@@H]1O.[Au+] (some centres unmarked) | -26 |
| CCC(C)CC(=O)OC1C(=O)C(CO)=CC(O)C1C(C)C (centres unmarked) | -22 |
| Cc1sc2c(c1C)C(c1ccc(Cl)cc1)=N[C@@H](CC(=O)Nc1ccc(OCCOCCOCCOCCNc3cccc4c3C(=O)N(C3CCC(=O)NC3=O)C4=O)cc1)c1nnc(C)n1-2 (some centres unmarked) | -26 |
| O=C(O)CCc1nc(-c2ccccc2)c(-c2ccccc2)o1 | -11 |
| O=[N+]([O-])c1cccc2c(Br)n[nH]c12 | -16 |
| Oc1ccc2c3c1O[C@H]1c4[nH]c5c(N=C=S)cccc5c4C[C@@]4(O)[C@@H](C2)N(CC2CC2)CC[C@]314 | -30 |
| CCOC(=O)C1=C(C)NC(C)=C(C(=O)OCC)C1c1c(F)c(F)c(F)c(F)c1F | -13 |
| Nc1nccn2c(C3CCC(C(=O)O)CC3)nc(-c3cc4cccc(Cl)c4[nH]3)c12 (centres unmarked) | -33 |
| CCCC(C(=O)OCCN(CC)CC)(c1ccccc1)c1ccccc1.Cl | -14 |
| CCCCCCCCCCC/C=C\C(C)(C)/C=C\CCCC(=O)O | -30 |
| N#C/C(=C\c1ccc(O)c(O)c1)C(=O)NCCCNC(=O)/C(C#N)=C/c1ccc(O)c(O)c1 | -24 |
| COC(=O)CC1OC(C)C2=C(O)c3c(O)cccc3C(=O)C23OC13 (centres unmarked) | -22 |
| O=C1NC(=O)/C(=C/c2ccc3nccnc3c2)S1 | -20 |
| COC(=O)C1C(O)CCC2CN3CCc4c([nH]c5ccccc45)C3CC21 (centres unmarked) | -68 |
| COc1cc(Nc2ccc([N+](=O)[O-])cc2C(=O)O)cc2ccccc12 | -27 |
| C=C(C)C(=O)OC1CC2(C)OC(=CC2=O)C(=C)CC2OC(=O)C(=C)C12 (centres unmarked) | -22 |

====

Molecular target: CIB1 and αIIb interaction (CIB1-GST : F-αIIb peptide) (Homo sapiens)
Construct: made in house; host or cells: BL-21 plus RIL cells (E. coli)
Experiment: FP assay, 1536-well qHTS format (primary and confirmatory screen)
Assay type: binding
Conditions: qHTS primary screen of LOPAC/NPACT libraries; negative = inhibition

| Compound | Efficacy (%) |
| --- | --- |
| CC(NC(=O)CC(=O)O)c1nc2ccccc2c(=O)[nH]1 (stereo not shown) | -145 |
| C=C1C2(C)CC3C(C)(O)C4=CC(=O)OC(C)(C)C4=CCC3(C)C13C(=O)OC(C)C3(O)C2=O (stereo not shown) | -28 |
| N[C@@H](CCC(=O)N[C@H](CSN=O)C(=O)NCC(=O)O)C(=O)O | -13 |
| COc1cc(SC)ccc1C(=O)N1CCC(Cc2ccccc2)CC1 | -11 |

====

The following compounds are listed with their measured CONFIRMATORY SCREEN Efficacy (%) values.
Molecular target: CIB1 and αIIb interaction (CIB1-GST : F-αIIb peptide) (Homo sapiens, UniProt Q99828)
Construct: made in house; host or cells: BL-21 plus RIL cells (E. coli)
Test: FP assay, 1536-well qHTS format (primary and confirmatory screen)
Type: binding
Settings: confirmatory screen; negative = inhibition

| Compound | CONFIRMATORY SCREEN Efficacy (%) |
| --- | --- |
| O=C(Cc1ccc(Cl)c(Cl)c1)Nc1ccc(S(=O)(=O)Nc2nncs2)cc1.O=C(O)C(F)(F)F | -31 |
| Cc1ccc(S(=O)(=O)Nc2cnccc2C(=O)Nc2nc(-c3ccc(Cl)cc3)cs2)cc1.O=C(O)C(F)(F)F | -69 |
| CCC(=O)NC(c1cccs1)c1cc([N+](=O)[O-])c2cccnc2c1O (stereo not shown) | -53 |
| O=C(O)c1cccc(CN2C(=O)/C(=C(\c3ccccc3)c3ccc(Cl)cc3)c3ccccc32)c1 | -63 |
| Nc1c(Cc2ccc(S(N)(=O)=O)cc2)c(-c2cccc(-c3ccccc3)c2)nn1-c1nc(C(=O)O)cs1.O=C(O)C(F)(F)F | -78 |
| CCc1ccc(S(=O)(=O)Nc2cnccc2C(=O)Nc2nc(-c3ccccc3)cs2)cc1.O=C(O)C(F)(F)F | -82 |
| CCOC(=O)c1nnc(NS(=O)(=O)c2ccc(NC(=O)Cc3ccc(Cl)c(Cl)c3)cc2)s1.O=C(O)C(F)(F)F | -47 |
| O=C(O)C(F)(F)F.O=c1c2ccccc2nc2sc(Nc3cccc(N4CCN5CCCCC5C4)c3)nn12 (stereo not shown) | -50 |
| COc1ccccc1S(=O)(=O)Nc1cnccc1C(=O)Nc1nc(-c2ccccc2)cs1.O=C(O)C(F)(F)F | -79 |
| Cc1ccc(S(=O)(=O)Nc2nn3c(=O)c4ccccc4nc3s2)cc1C.O=C(O)C(F)(F)F | -46 |
| Cc1ccc(C(=O)Nc2ccc(S(=O)(=O)O)c3cc(S(=O)(=O)O)cc(S(=O)(=O)O)c23)cc1NC(=O)c1cccc(NC(=O)Nc2cccc(C(=O)Nc3cc(C(=O)Nc4ccc(S(=O)(=O)O)c5cc(S(=O)(=O)O)cc(S(=O)(=O)O)c45)ccc3C)c2)c1 | -15 |
| COc1ccccc1C(=O)c1no[n+]([O-])c1C(=O)c1ccccc1OC.O=C(O)C(F)(F)F | -45 |
| CCc1oc2ccccc2c1C(=O)c1cc(Br)c(O)c(Br)c1 | -66 |
| CC(C)NC(=S)N/N=C1\C(=O)Nc2ccccc21.O=C(O)C(F)(F)F | -48 |
| CC(=O)Oc1cccc2c1C(=O)c1c(OC(C)=O)cc(C(=O)O)cc1C2=O | -50 |
| CC(C)=CCC[C@]1(C)C=Cc2c(O)c3c(c(CC=C(C)C)c2O1)O[C@]12C(=C[C@@H]4CC1C(C)(C)O[C@@]2(C/C=C(/C)C(=O)O)C4=O)C3=O | -54 |
| O=S(=O)(c1ccc2nc(Cl)c(Cl)nc2c1)N1CCN(S(=O)(=O)c2c(F)cccc2F)CC1 | -43 |
| CCOC(=O)N1CCN([N+]([O-])=NOc2ccc([N+](=O)[O-])cc2[N+](=O)[O-])CC1 | -62 |
| O=C(Cc1ccc(Cl)c(Cl)c1)Nc1ccc(S(=O)(=O)Nc2cccc(C(=O)O)c2)cc1.O=C(O)C(F)(F)F | -27 |
| Cc1cc(F)ccc1S(=O)(=O)Nc1cnccc1C(=O)Nc1nc(-c2ccccc2)cs1 | -123 |
| Cc1ccc(S(=O)(=O)Nc2cnccc2C(=O)Nc2nc(-c3cccc(Cl)c3)cs2)cc1.O=C(O)C(F)(F)F | -94 |
| CN(C)[C@H]1CCN(c2cccc(Nc3nn4c(=O)c5ccccc5nc4s3)c2)C1.O=C(O)C(F)(F)F | -54 |
| COc1ccc2c(c1)C=C1Cn3c-2c(C2CCCCC2)c2ccc(cc23)C(=O)NS(=O)(=O)N(C)CCOCCN(C)C1=O | -52 |
| Cc1ccc(C)n1-c1cccc(C(=O)O)c1.O=C(O)C(F)(F)F | -42 |
| N[C@@H](Cc1ccc(Oc2cc(I)c(O)c(I)c2)c(I)c1)C(=O)O | -60 |
| Cc1ccc(Cl)cc1NC(=O)c1nc[nH]c1C(=O)Nc1nc2ccccc2[nH]1 | -28 |
| CNC(=S)N/N=C1\C(=O)Nc2ccccc21.O=C(O)C(F)(F)F | -28 |
| CC(O)c1ccc(-c2ccc3ncnc(NCc4nccs4)c3c2)o1.O=C(O)C(F)(F)F (stereo not shown) | -53 |

====

Molecular target: CIB1 and αIIb interaction (CIB1-GST : F-αIIb peptide) (Homo sapiens, UniProt Q99828)
Construct: made in house; host or cells: BL-21 plus RIL cells (E. coli)
Sequence (Q99828 1-191): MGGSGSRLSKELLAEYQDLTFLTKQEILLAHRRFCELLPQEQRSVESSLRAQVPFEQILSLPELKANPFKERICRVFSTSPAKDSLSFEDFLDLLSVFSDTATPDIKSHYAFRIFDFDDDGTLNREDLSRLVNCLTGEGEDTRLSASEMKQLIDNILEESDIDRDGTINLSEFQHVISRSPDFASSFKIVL
Assay: FP assay, 1536-well qHTS format (primary and confirmatory screen)
Type: binding
Settings: qHTS primary screen hits, Table S2; negative = inhibition
Answer 0 (no) if Efficacy (%) is under -70%, and 1 (yes) if it is -70% or more.

| Molecule | Target Under Test | Class Name |
| --- | --- | --- |
| CO[C@@H]1C(N(C)C(=O)c2ccccc2)C[C@H]2O[C@]1(C)n1c3ccccc3c3c4c(c5c6ccccc6n2c5c31)C(=O)NC4=O (stereo partly shown) | CIB1 and αIIb interaction (CIB1-GST : F-αIIb peptide) (Homo sapiens, UniProt Q99828) | 1 (yes) |
| C[n+]1cc2c3c(ccc2c2ccc4cc5c(cc4c21)OCO5)OCO3.[Cl-] | CIB1 and αIIb interaction (CIB1-GST : F-αIIb peptide) (Homo sapiens, UniProt Q99828) | 0 (no) |
| CCCCNC(=S)N/N=C1\C(=O)Nc2ccccc21.O=C(O)C(F)(F)F | CIB1 and αIIb interaction (CIB1-GST : F-αIIb peptide) (Homo sapiens, UniProt Q99828) | 1 (yes) |
| O.O=C(O)[C@@H]1[C@H]2C[C@H]3c4[nH]c5ccccc5c4CCN3C[C@@H]2CC[C@@H]1O | CIB1 and αIIb interaction (CIB1-GST : F-αIIb peptide) (Homo sapiens, UniProt Q99828) | 1 (yes) |
| CNc1oc(-c2c[nH]c3ccccc23)nc1C#N.O=C(O)C(F)(F)F | CIB1 and αIIb interaction (CIB1-GST : F-αIIb peptide) (Homo sapiens, UniProt Q99828) | 1 (yes) |
| O=C(O)C(F)(F)F.O=S(=O)(Nc1ccc(N2CCNCC2)cc1)c1ccc(NCc2ccc(Br)cc2O)cc1 | CIB1 and αIIb interaction (CIB1-GST : F-αIIb peptide) (Homo sapiens, UniProt Q99828) | 0 (no) |
| CNc1nc2c(s1)C(c1ccc(OC)cc1OC)CC(=O)N2.O=C(O)C(F)(F)F (stereo not shown) | CIB1 and αIIb interaction (CIB1-GST : F-αIIb peptide) (Homo sapiens, UniProt Q99828) | 1 (yes) |

// data source = paper PMC11249646
